B1: HDV Ribozyme (parent)
chain: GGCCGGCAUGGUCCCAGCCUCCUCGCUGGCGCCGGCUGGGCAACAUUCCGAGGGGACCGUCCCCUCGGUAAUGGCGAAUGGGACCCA

Variants of: B1
Test: self-cleavage, relative activity (ratio to wild type); higher = more cleavage; co-transcriptional
The following ranges of self-cleavage define the classes used here: bottom end = under 0.2, midrange = from 0.2 up to 0.5, top end = 0.5 and over

Solved cases below.
INSERT INTO assay_data (sequence_input, class_assignment) VALUES
  ('GGCCGGCAUCGUCCCAGCCUCCUCGCUGGCGCCGGCUGGGCAACAUUCCGAAGGGACCGUCCCCUCGGUAAUGGCGAAUGGGACCCA [G10C G52A]', 'top end'),
  ('GGCCUGCAUGGUCCCAGCCUCCUCGCUGGCGCCGGCUGGGCAACAUUCCGAGGGGACCGUCCCCUCGGUAGUGGCGAAUGGGACCCA [G5U A71G]', 'midrange'),
  ('GGCCGGCAUGGUCCCAGCCUCCUUGCUGGCGCCGGCUGGGCAACAUUCCGAGGGGCCCGUCCCCUCGGUAAUGGCGAAUGGGACCCA [C24U A56C]', 'top end'),
  ('GGCCGACAUGGUCCCAGCCUACUCGCUGGCGCCGGCUGGGCAACAUUCCGAGGGGACCGUCCCCUCGGUAAUGGCGAAUGGGACCCA [G6A C21A]', 'bottom end'),
  ('GGCCGGCAGGGUCCCAGCCUCCUCGCUGGCUCCGGCUGGGCAACAUUCCGAGGGGACCGUCCCCUCGGUAAUGGCGAAUGGGACCCA [U9G G31U]', 'top end'),
  ('GGCCGGCAGGGUCCCAGCCUCCUCGCUGGCGCCGGCUGGGCAAGAUUCCGAGGGGACCGUCCCCUCGGUAAUGGCGAAUGGGACCCA [U9G C44G]', 'top end'),
  ('GGCCGGCAUGGUCCCAGCCUCCUCGCUGGCGCCGGCUAGGCAACAUUCCGAGGGGUCCGUCCCCUCGGUAAUGGCGAAUGGGACCCA [G38A A56U]', 'midrange'),
  ('GCCCGGCAUGGUCCCAGCCUCCUCGCUGGCGCCGGCUGGGCAACAUUCCGAGGGGACCGUCCCCUCGGUAAUGGCGAAUGGGGCCCA [G2C A83G]', 'bottom end');

Q: GET /class?item= GGCCGGCAUGGUCCCAGCCUCCUCGCUGGCGCGGGCUGGGCAACAUUCCGAUGGGACCGUCCCCUCGGUAAUGGCGAAUGGGACCCA [C33G G52U]
Ans: bottom end

Q: Which class holds GGCCGGCAUGGUCCCAGCCUCCUCGCUGGCGCCGGCUGGGCCACAUUCCGAGGGGACCGUCCCCUCGGUAAUGGCGAAUGGGACACA [A42C C85A] ?
Ans: bottom end

Q: Category of GGCCGGCAUGGUCCAAGCCUCCUCGCUGGCGCCGGCUGGGCAACAUUCCGAGGGGACCGUCCCCUCGGUAAUGGUGAAUGGGACCCA [C15A C75U] , please.
Ans: bottom end

Q: Which self-cleavage band matches GGCCGGCAUGGUCCCAGCCUCCUCGCUGGCACCGGCUGGGCAACAUUCCGAGGGGACCGUCCCCUCGGUAAUGGCGAAUGGGUCCCA [G31A A83U] ?
Ans: bottom end

Q: GET /class?item= GGCCGGCAUGGUCCCAGCCUCCUCGCUGGCGCCGGCUGGGCAACAUUCCGAGGGGACCGUCGCCUCGGGAAUGGCGAAUGGGACCCA [C62G U69G]
Ans: top end

Q: Any idea which band GGCCGGCAUGGUCCCAGCCUCCCCGCUGGCGCCGGCUGGGCAACAUUCCGAGGGGACCGCCCCCUCGGUAAUGGCGAAUGGGACCCA [U23C U60C] is in?
Ans: top end

Q: Determine which band this variant sits in: GGCCGGCAUGGUCCCAGCCUCCUCGCUGGCGCCGGCUGGGUAACAUUCCGAGGGGACCGUCCCCUCGGUAAUGGGGAAUGGGACCCA [C41U C75G]
Ans: midrange

Cited source: the RNAGym collection of RNA variant scans (doi:10.7554/elife.80360)
